- system-name: XPO1 (human) (human) (UniProt O14980)
- Sequence (O14980 whole entry): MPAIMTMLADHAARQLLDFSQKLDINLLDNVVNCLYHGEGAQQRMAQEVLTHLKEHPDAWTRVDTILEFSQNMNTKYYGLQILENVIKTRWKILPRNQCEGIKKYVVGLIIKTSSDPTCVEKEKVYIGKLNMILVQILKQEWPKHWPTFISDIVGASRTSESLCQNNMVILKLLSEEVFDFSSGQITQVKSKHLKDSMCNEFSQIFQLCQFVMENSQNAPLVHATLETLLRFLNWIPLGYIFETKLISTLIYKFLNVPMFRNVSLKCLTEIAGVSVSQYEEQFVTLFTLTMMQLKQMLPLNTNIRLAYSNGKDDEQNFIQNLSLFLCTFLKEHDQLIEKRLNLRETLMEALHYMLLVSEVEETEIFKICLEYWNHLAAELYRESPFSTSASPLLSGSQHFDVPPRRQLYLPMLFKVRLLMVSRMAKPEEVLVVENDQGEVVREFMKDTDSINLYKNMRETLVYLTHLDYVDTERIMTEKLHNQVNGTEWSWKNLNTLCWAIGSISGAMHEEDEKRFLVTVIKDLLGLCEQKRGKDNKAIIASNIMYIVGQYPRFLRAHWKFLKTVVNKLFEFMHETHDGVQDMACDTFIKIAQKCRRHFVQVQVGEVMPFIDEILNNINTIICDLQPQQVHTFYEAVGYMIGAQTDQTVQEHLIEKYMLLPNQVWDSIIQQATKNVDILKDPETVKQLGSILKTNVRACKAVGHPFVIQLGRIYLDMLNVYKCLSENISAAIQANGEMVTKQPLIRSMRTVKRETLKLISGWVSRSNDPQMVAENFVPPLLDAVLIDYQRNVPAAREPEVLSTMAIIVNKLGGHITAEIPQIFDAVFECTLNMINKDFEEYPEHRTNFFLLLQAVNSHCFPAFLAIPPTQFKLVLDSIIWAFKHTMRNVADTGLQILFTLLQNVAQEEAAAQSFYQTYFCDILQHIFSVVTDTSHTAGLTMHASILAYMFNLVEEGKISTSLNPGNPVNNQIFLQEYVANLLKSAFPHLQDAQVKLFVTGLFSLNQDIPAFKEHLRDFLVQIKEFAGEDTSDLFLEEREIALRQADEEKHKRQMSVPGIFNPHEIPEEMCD
- test: other fluorescence titration; competition differential bleaching: MBP-NES competes with the probe FITC-NESPKI for XPO1, in the presence of excess RanGTP (GSP1 179ter, Q71L); analysed in PALMIST
property-name: pKd
Answers are plain numbers, as −log10 of the molar value.

Req: Look up pKd: MBP-NESTDP (maltose binding protein fused to the putative NES peptide of TDP-43, residues 236-253)
Resp: 4.89
